- System: A549/ATCC NSCLC
- Test name: NCI-60 one-dose screen, 48 h (100 = growth as untreated, 0 = no growth, -100 = all killed)
- Experimental parameters: 10 µM unless noted
This is part of a sample that, as a whole, favours compounds with a hit. Of some 83,000 tested, about 20% had one in any assay.
Measured growth accompanies every entry in the list below.
Assay readout: growth (%)

[[record]]
compound = "CCNC(=O)N1CCc2cc(OC)c(OCCc3ccc(OC)c(N)c3)cc2C1c1ccc(C)cc1C (centres undefined)"
unit_string = "%"
measured_number = 9.14

[[record]]
compound = "C=C1CC[C@@H]2[C@]3(C)COC(c4ccccc4)O[C@@H]3CC[C@@]2(C)[C@@H]1C/C=C1/C(=O)OC[C@H]1O (some centres undefined)"
unit_string = "%"
measured_number = 92.6

[[record]]
compound = "COc1cccc2c1CN(C(=O)c1ccc(O)c(C(=O)N3Cc4ccc(OCCC[P+](c5ccccc5)(c5ccccc5)c5ccccc5)cc4C3)c1)C2"
unit_string = "%"
measured_number = 101

[[record]]
compound = "COC(=O)/C=C/c1c(C2(C)NC(=O)c3ccccc3N2)c(=O)oc2ccc(Cl)cc12 (centres undefined)"
unit_string = "%"
measured_number = 95.2

[[record]]
compound = "CS(=O)(=O)Nc1cc(-c2ccc3ncc(C#N)c(NCc4ccccc4O)c3c2)cnc1Cl"
unit_string = "%"
measured_number = 15.8

[[record]]
compound = "O=C1CC(=O)N2CSCN(C(c3ccccc3)c3nc4ncncc4[nH]3)C2=N1 (centres undefined)"
unit_string = "%"
measured_number = 105

[[record]]
compound = "O=C(Nc1nonc1-c1ccccc1)c1ccc(C(F)(F)F)cc1"
unit_string = "%"
measured_number = 87.3

[[record]]
compound = "NC(=O)c1cccc(C#CCNC[C@H]2C[C@@H](n3ccc4c(Cl)ncnc43)[C@H](O)[C@@H]2O)c1"
unit_string = "%"
measured_number = 101

[[record]]
compound = "CC[C@H](CO)Nc1ccc2ncc(C#Cc3cncc(C(=O)Nc4ccc(CN5CCN(C)CC5)c(C(F)(F)F)c4)c3)n2n1"
unit_string = "%"
measured_number = -0.341

[[record]]
compound = "O=C(Nc1ccc(F)c(F)c1)c1cc(-c2ccc(F)cc2F)ccc1O"
unit_string = "%"
measured_number = 8.98

[[record]]
compound = "O=S(=O)(NC1c2ccccc2C[C@H]1O)c1ccc(Cl)cc1Cl (some centres undefined)"
unit_string = "%"
measured_number = 93.5

[[record]]
compound = "CCCn1cnc2c(c1=N)C(c1ccc(OC)cc1)c1sc3c(C)cccc3c1O2 (centres undefined)"
unit_string = "%"
measured_number = 29.2

[[record]]
compound = "Cc1ccc(-c2cc3nc(C(Cl)Cl)nc(-c4ccco4)n3n2)cc1"
unit_string = "%"
measured_number = 2.51

[[record]]
compound = "CCC(NC(c1cc2cccc3ccc4cccc1c4c32)c1nnnn1C(C)(C)C)C1CCCCC1 (centres undefined)"
unit_string = "%"
measured_number = 69.7

[[record]]
compound = "COc1ccc(CCN2C(=O)CSC2=S)cc1"
unit_string = "%"
measured_number = 102

[[record]]
compound = "CC(C)(C)n1nnnc1C(Nc1cccc2c1OCO2)c1cc2cccc3ccc4cccc1c4c32 (centres undefined)"
unit_string = "%"
measured_number = 81.3

[[record]]
compound = "CCCCNNC(=O)c1ccc(-c2cccc(F)c2F)cc1"
unit_string = "%"
measured_number = 34.2

[[record]]
compound = "Cc1ccc(NC(=O)c2ccc(CN3CCN(C)CC3)cc2)cc1Oc1ccc(-c2[nH]nc3ncnc(N)c23)cc1"
unit_string = "%"
measured_number = 98.8

[[record]]
compound = "NC(N)=Nc1ccc(Oc2cccc(NC(N)=Nc3ccc(I)cc3F)c2)cc1"
unit_string = "%"
measured_number = 68.7


* * *

- Tested on: SNB-19 CNS
- Test name: NCI-60 one-dose screen, 48 h (100 = growth as untreated, 0 = no growth, -100 = all killed)
- Experimental parameters: 10 µM unless noted
Compounds without any hit were thinned out: in the full panel of roughly 83,000, 20% have a hit.
Assay readout: growth (%)

[[record]]
compound = "COc1ccc(C2c3sc4c(C)cccc4c3Oc3nc(CC(=O)Nc4ccccc4)[nH]c(=O)c32)cc1 (stereo not given)"
measured_number = 89

[[record]]
compound = "Nc1nc(Nc2ccccc2SSc2ccccc2Nc2nc(N)nc(-c3ccc4ccccc4c3)n2)nc(-c2ccc3ccccc3c2)n1"
measured_number = 92.9

[[record]]
compound = "O=[N+]([O-])c1cc(/C=N/Nc2nc(N/N=C/c3ccc(Cl)c([N+](=O)[O-])c3)nc(N3CCCCC3)n2)ccc1Cl"
measured_number = 72.6

[[record]]
compound = "COc1ccccc1NC1=C(Cl)C(=O)c2nc(C)ccc2C1=O"
measured_number = 38.9

[[record]]
compound = "C#Cc1nc(C(C)=O)cs1"
measured_number = 102


* * *

- Test system: EKVX NSCLC
- Test name: NCI-60 one-dose screen, 48 h (100 = growth as untreated, 0 = no growth, -100 = all killed)
- Experimental parameters: 10 µM unless noted
About 83,000 compounds went through this panel and 20% of them were active in at least one assay; those are over-represented in the sample as a whole.
Each record gets a class by growth: low class = under 50%, middle class = from 50% up to 80%, high class = 80% and over

[[record]]
compound = "CC1=N[C@@H]2CN(C(=O)OC(C)(C)C)C[C@@H]2n2c1cc1ccccc1c2=O"
qualitative_label = "high class"

[[record]]
compound = "C#C[C@]1(O)CC[C@H]2[C@@H]3CC=C4c5sc(-c6cccc(O)c6)nc5CC[C@]4(C)[C@H]3CC[C@@]21C"
qualitative_label = "low class"

[[record]]
compound = "C=C1CC[C@@H]2[C@]3(C)COC(c4ccccc4)O[C@@H]3CC[C@@]2(C)[C@@H]1C/C=C1/C(=O)OC[C@H]1O (some centres not stated)"
qualitative_label = "high class"

[[record]]
compound = "COc1cccc2c1CN(C(=O)c1ccc(O)c(C(=O)N3Cc4ccc(OCCC[P+](c5ccccc5)(c5ccccc5)c5ccccc5)cc4C3)c1)C2"
qualitative_label = "middle class"

[[record]]
compound = "CN1CCN(Cc2ccc(NC(=O)c3cncc(C#Cc4cnc5ccc(OCC6(C)COC6)nn45)c3)cc2C(F)(F)F)CC1"
qualitative_label = "low class"

[[record]]
compound = "C[C@@H]1C[C@H]2C(=O)O[C@@H](C)C(NC(=O)[C@H](Cc3cc(F)cc(F)c3)NC(=O)Nc3ccc(C4CC4)cc3F)C(=O)N3CCC[C@H]3C(=O)N3CCCC[C@H]3C(=O)N[C@@H](CO)C(=O)N2C1 (some centres not stated)"
qualitative_label = "low class"

[[record]]
compound = "COc1ccc(C(=O)CSc2nc3c(c(Nc4ccc(S(N)(=O)=O)cc4)n2)CCCC3)cc1"
qualitative_label = "high class"

[[record]]
compound = "Nc1nc(-c2cccc([N+](=O)[O-])c2)c(N=Nc2ccccc2)s1"
qualitative_label = "middle class"

[[record]]
compound = "CC(=O)C1=C(C)NC(NNC(N)=S)=NC1c1ccccc1 (configuration not stated)"
qualitative_label = "middle class"

[[record]]
compound = "O=C(CCn1c[n+](CC(=O)c2ccc(-c3ccccc3)cc2)c2ccccc21)Nc1cccc2cccnc12"
qualitative_label = "middle class"

[[record]]
compound = "CC/C(=C/c1cc(OC)ccc1O)c1ccc2cc(OC)ccc2[o+]1"
qualitative_label = "middle class"

[[record]]
compound = "COc1ccc(/C=N/NC(=O)c2cn(C3CC3)c3c(OC)c(N4CC5CCCNC5C4)c(F)cc3c2=O)cc1 (configuration not stated)"
qualitative_label = "high class"

[[record]]
compound = "Cn1cc(-c2nc(N)nnc2-c2c[nH]c3ccc(Br)cc23)c2cc(Br)ccc21"
qualitative_label = "middle class"

[[record]]
compound = "CC1=NC2=NN3C(=NN2C(c2ccccc2)=C1)N=NC(c1ccc(Br)cc1)=C3c1ccc(Br)cc1"
qualitative_label = "high class"

[[record]]
compound = "CC(=O)Nc1cccc(Nc2nc(N[C@H](C)c3ccccc3)c3ccccc3n2)c1"
qualitative_label = "middle class"


* * *

Measured growth accompanies every entry in the list below.
- Test system: SR leukemia
- Test name: NCI-60 one-dose screen, 48 h (100 = growth as untreated, 0 = no growth, -100 = all killed)
- Experimental parameters: 10 µM unless noted
This is part of a sample that, as a whole, favours compounds with a hit. Of some 83,000 tested, about 20% had one in any assay.
Assay readout: growth (%)

[[record]]
input_smiles = "C=C(C)[C@@H]1CC[C@]2(COCCCNCCC#N)CC[C@]3(C)[C@H](CC[C@@H]4[C@@]5(C)CC[C@H](OCCCNCCC#N)C(C)(C)[C@@H]5CC[C@]43C)[C@@H]12"
assay_readout = "growth"
unit_string = "%"
measured_number = -18.4

[[record]]
input_smiles = "Cc1cc(C)c2sc(=O)n(Cc3nnc(SCCC(=O)O)o3)c2n1"
assay_readout = "growth"
unit_string = "%"
measured_number = 79.2

[[record]]
input_smiles = "COc1ccc2[nH]cc(-c3csc4nc(-c5ccccc5)cn34)c2c1"
assay_readout = "growth"
unit_string = "%"
measured_number = 20.1

[[record]]
input_smiles = "Cc1nc2ncc(-c3ccc4ncnc(NCc5ccccc5)c4c3)cc2[nH]1"
assay_readout = "growth"
unit_string = "%"
measured_number = 78.3

